Field: pIC50. Provide a value for each of the binders that follow.
Molecular target: T1, biotinylated recombinant human trimeric ARG2 enzyme (Avi-huARG2-His10) (human, UniProt P78540 23-354, biotinylated)
T1 construct: also called avi-Arg2-His10; bio-ARG2
T1 chain: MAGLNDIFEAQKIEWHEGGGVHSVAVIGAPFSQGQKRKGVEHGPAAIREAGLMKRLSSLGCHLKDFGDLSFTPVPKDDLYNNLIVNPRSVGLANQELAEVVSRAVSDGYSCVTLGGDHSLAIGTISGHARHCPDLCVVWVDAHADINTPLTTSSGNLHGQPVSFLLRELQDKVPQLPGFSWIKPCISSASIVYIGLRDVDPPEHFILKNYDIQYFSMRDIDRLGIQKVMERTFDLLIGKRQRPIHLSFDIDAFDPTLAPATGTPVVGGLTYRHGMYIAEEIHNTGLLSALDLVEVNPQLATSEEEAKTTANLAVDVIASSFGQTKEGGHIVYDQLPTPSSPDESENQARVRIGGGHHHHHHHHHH
Assay: HTRF epitope competition, scFv titrated, competitor C0020187 IgG, on biotinylated human trimeric ARG2
Schema: pIC50 number; meaning minus log10 of the concentration expressed in molar units.

What pIC50 value was documented for this binder, C0021133 scFv (scFv, V domains shown, scFv) VH: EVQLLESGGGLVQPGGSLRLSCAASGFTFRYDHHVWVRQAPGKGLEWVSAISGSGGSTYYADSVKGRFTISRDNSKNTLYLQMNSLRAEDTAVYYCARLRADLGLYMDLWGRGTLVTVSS VL: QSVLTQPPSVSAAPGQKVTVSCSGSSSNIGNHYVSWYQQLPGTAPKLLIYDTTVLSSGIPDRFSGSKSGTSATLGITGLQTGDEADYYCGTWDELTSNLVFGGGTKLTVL ?
7.36

Fill blank: measured pIC50 of the binder C0021128 scFv (scFv, V domains shown, scFv) VH: EVQLLESGGGLVQPGGSLRLSCAASGFTFQYEVAAWVRQAPGKGLEWVSAISGPIPKGYYADSVKGRFTISRDNSKNTLYLQMNSLRAEDTAVYYCARLRADLGLYMDLWGRGTLVTVSS VL: QSVLTQPPSVSAAPGQKVTISCSGSSSNIGNHYVSWYQQLPGTAPKLLIYDNAIESSGIPDRFSGSKSGTSATLGITGLQTGDGADYYCGTWDSNLSALVFGGGTKLTVL is ____.
7.35

So what does the record say about pIC50 for C0021032 scFv (scFv, V domains shown, scFv) VH: EVQLLESGGGLVQPGGSLRLSCAASGFTFSSYAMSWVRQAPGKGLEWVSAYGYGIGSTYYADSVKGRFTISRDNSKNTLYLQMNSLRAEDTAVYYCARLRADLGLYMDLWGRGTLVTVSS VL: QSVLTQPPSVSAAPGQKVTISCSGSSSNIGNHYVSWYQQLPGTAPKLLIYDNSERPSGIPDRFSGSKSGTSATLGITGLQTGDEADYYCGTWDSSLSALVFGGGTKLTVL ?
7.17

Given C0021021 scFv (scFv, V domains shown, scFv) VH: EVQLLESGGGLVQPGGSLRLSCAASGFTFSSYAMSWVRQAPGKGLEWVSSILFSPGSTYYADSVKGRFTISRDNSKNTLYLQMNSLRAEDTAVYYCARLRADLGLYMDLWGRGTLVTVSS VL: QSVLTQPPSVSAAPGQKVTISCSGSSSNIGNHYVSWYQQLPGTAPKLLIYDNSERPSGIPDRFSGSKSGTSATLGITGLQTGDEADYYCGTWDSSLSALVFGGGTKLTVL , state its recorded pIC50.
7.23

What value of pIC50 has been reported for the following binder? C0021022 scFv (scFv, V domains shown, scFv) VH: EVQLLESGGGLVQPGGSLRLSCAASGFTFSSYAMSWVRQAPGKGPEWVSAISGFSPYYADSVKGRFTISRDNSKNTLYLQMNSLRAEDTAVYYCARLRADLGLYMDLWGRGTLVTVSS VL: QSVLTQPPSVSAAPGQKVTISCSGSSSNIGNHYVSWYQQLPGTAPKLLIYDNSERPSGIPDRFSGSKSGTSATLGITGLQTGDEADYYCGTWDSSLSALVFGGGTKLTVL
7.18
